Assay: Cytotoxicity against human BEAS2B cells after 72 hrs by MTT assay
Assay type: cell-based, BEAS-2B
Settings: beas-2b, 72 h
This listing pairs compounds with measured LC50.

Some solved entries appear below for comparison.
In [3]: df
Out[3]:
                                  compound  readout_type  endpoint_value
0                   Nc1nc([SeH])nc2ncccc12          LC50        > 100 µM
1  CCCCCSc1nc(NCc2ccc([Se]C)cc2)c2ccccc2n1          LC50        > 100 µM
2               CCCCC[Se]c1nc(N)c2cccnc2n1          LC50        73.48 µM
3          [SeH]c1nc(NCc2ccccc2)c2cccnc2n1          LC50        > 100 µM
4         COc1ccc(CNc2nc(SC)nc3ncccc23)cc1          LC50        > 100 µM
5           CSc1nc(NCCCc2ccccc2)c2ccccc2n1          LC50        > 100 µM

The compound COc1ccc(CNc2nc([Se]C)nc3ccccc23)cc1 showed LC50 equal to > 100 µM

The compound Sc1nc(NCc2ccccc2)c2ccccc2n1 showed LC50 equal to > 100 µM

---

Test: Cytotoxicity against human BEAS2B cells after 72 hrs by MTT assay
Assay type: cell-based, BEAS-2B
Details: beas-2b, 72 h
readout type: TGI (µM)
Reply with just the number (in µM).

Some solved entries appear below for comparison.
>>> print(df.to_string())
                               smiles_repr  endpoint_value
0             CSc1nc(NCc2ccccc2)c2ccccc2n1           88.24
1         COc1ccc(CNc2nc(SC)nc3ccccc23)cc1           96.24
2  CCCCC[Se]c1nc(NCc2ccc(SC)cc2)c2ccccc2n1           88.21

The molecule CSc1ccc(CNc2nc(SC)nc3ncccc23)cc1 showed TGI equal to 3.77

---

This listing pairs compounds with measured TGI.
Assay: Cytotoxicity against human 184B5 cells after 72 hrs by MTT assay
Assay type: cell-based
Details: 184b5, 72 h

Some solved entries appear below for comparison.
                              compound  readout_type  endpoint_value
0  CSc1nc(NCc2ccc([Se]C)cc2)c2ccccc2n1           TGI        > 100 µM
1         CSc1nc(NCc2ccccc2)c2ccccc2n1           TGI        > 100 µM
2               C[Se]c1nc(N)c2cccnc2n1           TGI        87.15 µM

The compound [SeH]c1nc(NCc2ccccc2)c2cccnc2n1 showed TGI equal to 9.13 µM

The compound CSc1ccc(CNc2nc([SeH])nc3ccccc23)cc1 showed TGI equal to 86.27 µM

The compound CCCCCSc1nc(O)c2ccccc2n1 showed TGI equal to > 100 µM

The compound CSc1ccc(CNc2nc(SC)nc3ccccc23)cc1 showed TGI equal to > 100 µM

The compound CSc1nc(NCCCc2ccccc2)c2ccccc2n1 showed TGI equal to > 100 µM

The compound CSc1nc(Nc2ccccc2)c2ccccc2n1 showed TGI equal to > 100 µM

The compound COc1ccc(CNc2nc(S)nc3ccccc23)cc1 showed TGI equal to 36.55 µM

The compound Nc1nc([SeH])nc2ccccc12 showed TGI equal to 36.65 µM

The compound C[Se]c1nc(N)c2ccccc2n1 showed TGI equal to 59.04 µM

The compound CCCCC[Se]c1nc([Se]CCCCC)c2cccnc2n1 showed TGI equal to > 100 µM
